Hello, the source for this data is patent US11654196B2, in case you need it.

assay: Circulating half-life in chimpanzee; type: in vivo; settings: in vivo, iv, 1 mg/kg, assays conducted by applicant, read-out: Half-life (converted)
*1 amine or outer side, *2 acyl side, *3 side chain or, on linkers, in order; H or OH if unused. Where a SMILES comes first, the peptide text is derived from it. Bridges are numbered along the chain shown (N, C = ends). [ ]: non-standard residue; d: D form. The star is where a group is joined. pTerphenylCO(4''-OnC5H11) = CCCCCOc1ccc(-c2ccc(-c3ccc(C(=O)*)cc3)cc2)cc1; Orn(4R-OH,5R-OH) = O=C([C@H](C[C@@H](O)[C@@H](O)N[*:3])N[*:1])[*:2]; hTyr(3S-OH,4S-OH) = N[C@H](C(=O)O)[C@H](O)[C@@H](O)c1ccc(O)cc1; Pro(3S-OH,4S-Me) = C[C@H]1CN[C@H](C(=O)O)[C@H]1O; Hyp = O=C(O)[C@@H]1C[C@@H](O)CN1

compound	unit-name	Half-life
CCCCCOc1ccc(-c2ccc(-c3ccc(C(=O)N[C@H]4C[C@@H](O)[C@@H](O)NC(=O)[C@@H]5[C@@H](O)[C@@H](C)CN5C(=O)[C@H]([C@@H](C)O)NC(=O)[C@H]([C@H](O)[C@@H](O)c5ccc(O)cc5)NC(=O)[C@@H]5C[C@@H](O)CN5C(=O)[C@H]([C@@H](C)O)NC4=O)cc3)cc2)cc1 [Anidulafungin, anidulafungin, reference compound] ({pTerphenylCO(4''-OnC5H11)}-[Orn(4R-OH,5R-OH)]T[Hyp][hTyr(3S-OH,4S-OH)]T[Pro(3S-OH,4S-Me)]; lactam 1-C)	h	30
